Tested on: SF-268 CNS
Experiment: NCI-60 one-dose screen, 48 h
Conditions: 10 µM unless noted
Compounds without any hit were thinned out: in the full panel of roughly 83,000, 20% have a hit. Activity calls are given as the source filed them. Rule for the calls: active = growth percent below 10; inactive = the rest.
Can you answer with just one of these options? active, inactive

As a guide, the following entries are already answered.
CCOC(=O)/C(F)=C/C1CC1C(c1ccccc1)c1ccccc1 (stereo unspecified) ... inactive
O=C1CCC(N2C(=O)c3cccc(NCCOCCOCCOCCC(=O)NCCCC(=O)NC(c4ccc5c(c4)OCO5)c4cc(Cl)c5cccnc5c4O)c3C2=O)C(=O)C1 (stereo unspecified) ... inactive
O=C(NC(=S)N1CCN(c2ncnc3c2cnn3-c2ccccc2)CC1)c1ccc(Br)cc1 ... inactive
COC(=O)c1c(C(=O)OC)c2c3ccccc3c3ccccc3n2c1C(=O)C(C)(C)C ... inactive
CCCCCCCCc1ccc(C(=O)Nc2cccc(O)c2)cc1 ... inactive
CC(C)C[C@H](NC(=O)[C@@H]1CCCCCCCCCCC(=O)N[C@@H](CC(=O)N2CCC[C@@H]2C2CCCC2)C(=O)N1)B(O)O ... active
Cc1ccccc1NC(=O)c1cccc(NC(=O)CCl)c1 ... inactive
NCCCCn1c(SCCc2c[nH]c3ccccc23)nnc1-c1ccc2ccccc2n1 ... inactive

Problem: Which outcome was assigned to Nc1nn2c(-c3cc4cc(Br)ccc4oc3=O)ccnc2c1N=Nc1ccc(S(N)(=O)=O)cc1 in this test?
Result: inactive

Problem: Which outcome was assigned to COc1ccc2[nH]cc(-c3cc4nc(-c5cn(C)c6ncc(Br)cc56)cc(N)n4n3)c2c1 in this test?
Result: active

Problem: Which outcome was assigned to Cc1ccc(C2CC(c3ccc(NC(=O)Nc4ccccc4)cc3)=NN2c2ccc(S(N)(=O)=O)cc2)cc1 (stereo unspecified) in this test?
Result: active

====

The following molecules are listed with their measured growth values.
System: SF-295 CNS
Test: NCI-60 one-dose screen, 48 h (100 = growth as untreated, 0 = no growth, -100 = all killed)
Conditions: 10 µM unless noted
About 83,000 compounds went through this panel and 20% of them were active in at least one assay; those are over-represented in the sample as a whole.
The figure you give is taken to be in %; do not add the unit.

Cc1ccc(Cl)cc1NC(=O)Nc1nc2ccc([N+](=O)[O-])cc2s1 ... -45.4
COc1ccc2c(c1)C(=O)N(C)C2C1c2c(cc3c(c2OC)OCO3)CCN1C (stereo not given) ... 26.7
COc1cc(C2CC(c3ccc(F)cc3)=Nc3c(N)nc(N)nc3N2)ccc1Oc1nc(Nc2ccc(F)cc2)nc(N(C)C)n1 (stereo not given) ... 40.3
c1n[nH]cc1-c1nc2ccc3[nH]ncc3c2c2c1CC1(CCOCC1)CC2 ... 65.8
O=C(c1ccc(Cl)cc1)C1[C@H](c2ccccc2Cl)[C@@H](c2ccccc2)NC12C(=O)Nc1ccccc12 (stereo not given in full) ... -72.3

The molecule listed as CCCn1c(NC(=O)c2cccc(C(N)=O)c2)nc2ccc(CN3CCCCC3)cc21 has a reported growth of 106

The molecule listed as Clc1ccc2c(NCCNC34CC5CC(CC(C5)C3)C4)ccnc2c1 has a reported growth of -90.9

====

System: HOP-62 NSCLC
Assay: NCI-60 one-dose screen, 48 h
Conditions: 10 µM unless noted
Protocol: Growth inhibition of the HOP-62 human Non-Small Cell Lung tumor cell line is measured as a screen for anti-cancer activity. Cells are grown in 96 well plates and exposed to the test compound for 48 hours. Compounds are tested at a single concentration, which is 10^-5 M for most compounds. The reported endpoint is percent growth (GI% or GIPRCNT), where numbers from 0 - 100% represent growth inhibition, and numbers from -100% - 0 represent cell death. […]
Compounds without any hit were thinned out: in the full panel of roughly 83,000, 20% have a hit. Calls of active or inactive are those of the source. Rule for the calls: active = growth percent below 10; inactive = the rest.
Can you answer with just one of these options? active, inactive

As a guide, the following entries are already answered.
O=CNc1cccc(-n2cnc3cc(-c4ccc(O)cc4)ccc32)c1 ... inactive
Nc1nn2c(-c3cc4cc(Br)ccc4oc3=O)ccnc2c1N=Nc1ccccc1 ... active
O=C(Cn1c(-c2ccccc2)nc2ccccc21)N=Nc1c(O)[nH]c2ccc(Cl)cc12 ... active
O=C1N/C(=N\c2nccs2)S/C1=C\c1ccc([N+](=O)[O-])cc1 ... inactive

Problem: Which outcome was assigned to COc1cncc(-c2ccc3ncnc(N4CCc5ccc(Cl)cc54)c3c2)c1 in this test?
Result: inactive

Problem: Which outcome was assigned to COc1cc(C2CC(c3ccc(F)cc3)=Nc3c(N)nc(N)nc3N2)ccc1Oc1nc(Nc2ccc(F)cc2)nc(N(C)C)n1 (stereo unspecified) in this test?
Result: inactive

====

Tested on: SW-620 colon
Experiment: NCI-60 one-dose screen, 48 h (100 = growth as untreated, 0 = no growth, -100 = all killed)
Conditions: 10 µM unless noted
Compounds without any hit were thinned out: in the full panel of roughly 83,000, 20% have a hit. Calls of active or inactive are those of the source. Rule for the calls: active = growth percent below 10; inactive = the rest.
reportedEndpoint: growth

Here are 5 molecules together with their reported answers.
S=C(Nc1ccccc1)Nc1ccc(OCc2nc3ccc(Cl)cc3[nH]2)cc1 ... 73% (inactive)
Cc1[nH]nc2ccc3nc(-c4cn[nH]c4C(F)(F)F)c4c(c3c12)CCCC4 ... -31.1% (active)
COc1ccc(NC(=O)Nc2nc3ccc([N+](=O)[O-])cc3s2)cc1 ... 15% (inactive)
NC(=Nc1ccc(OCCCCCCCCn2cnnn2)cc1)c1ccccc1 ... 22.5% (inactive)
O=C(NN1C(=O)/C(=C/C=C/c2ccc([N+](=O)[O-])o2)SC1=S)c1ccncc1 ... -69.6% (active)

The molecule listed as O=C1N/C(=N\c2nccs2)S/C1=C\c1ccc([N+](=O)[O-])cc1 has a reported growth of 20.9% (inactive)

The molecule listed as CC1CCc2c(sc3nc(SCC(=O)c4cccc(Br)c4)n(-c4ccccc4)c(=O)c23)C1 (stereo not given) has a reported growth of 28.5% (inactive)

The molecule listed as Cc1cccc(C)c1Nc1nnc(-c2c[nH]c3ccccc23)o1 has a reported growth of 99.5% (inactive)

The molecule listed as O=C(CSc1nc2sc3c(c2c(=O)n1-c1ccc(Cl)cc1)CCCC3)NNC(=O)c1ccc(F)cc1 has a reported growth of 91% (inactive)

====

Tested on: OVCAR-5 ovarian
Assay: NCI-60 one-dose screen, 48 h
Details: 10 µM unless noted
Compounds without any hit were thinned out: in the full panel of roughly 83,000, 20% have a hit. Active and inactive are the calls of the source. Rule for the calls: active = growth percent below 10; inactive = the rest.
Can you answer with just one of these options? 1 (yes) (active), 0 (no) (inactive)

As a guide, the following entries are already answered.
Cc1ccc(N=Nc2c(N)nn3c(-c4cc5ccccc5oc4=O)ccnc23)cc1 ... 0 (no)
Cc1cnc2ccc(Oc3ccccc3-c3ccccc3)nn12 ... 0 (no)
NS(=O)(=O)c1ccc(Nc2nc(N/N=C/c3cc(Br)c(O)c(Br)c3)nc(Nc3ccccc3)n2)cc1 ... 0 (no)
CN(C)CCCc1ccc(Nc2cnn(C)c(=O)c2Cl)cc1 ... 0 (no)

Problem: Which outcome was assigned to COc1ccc(-c2nc3ccccc3n2CC(=O)N=Nc2c(O)[nH]c3ccc(Br)cc23)cc1 in this test?
Result: 0 (no)

Problem: Which outcome was assigned to Cc1cc(=O)oc2cc(OCC(O)CNN3C(=O)c4cccc5c(N6CCN(C)CC6)ccc(c45)C3=O)ccc12 (stereo not drawn) in this test?
Result: 0 (no)

Problem: Which outcome was assigned to O=C(Cc1c(-c2cccc([N+](=O)[O-])c2)n(-c2ncnc3c2c(-c2ccccc2)c(-c2ccccc2)n3Cc2ccccc2)[nH]c1=O)c1ccc(Cl)c(Cl)c1 in this test?
Result: 0 (no)

Problem: Which outcome was assigned to COc1ccc2[nH]c(=O)c(CSc3ccccc3Nc3nccc(-c4ccc5c(c4)OCO5)n3)cc2c1 in this test?
Result: 0 (no)

Problem: Which outcome was assigned to O=C(OCCOCCO)N(c1cccc(Br)c1)c1nc(SCCN2CCOCC2)nc2c1cnn2CC(Cl)c1ccc(Br)cc1 (stereo not drawn) in this test?
Result: 0 (no)

Problem: Which outcome was assigned to CCOC(=O)/C(F)=C/C1CC1CCc1ccc(OCC)cc1 (stereo not drawn) in this test?
Result: 0 (no)

Problem: Which outcome was assigned to CN1CCN(c2ccc3c4c(cccc24)C(=O)N(c2cccc(-c4nn(-c5ccccc5)cc4-c4nc5ccccc5s4)c2)C3=O)CC1 in this test?
Result: 0 (no)

Problem: Which outcome was assigned to O=C(/C=C1\C(=O)N(Cc2ccccc2)c2ccccc21)c1cc2ccccc2oc1=O in this test?
Result: 0 (no)

Problem: Which outcome was assigned to Cn1cc(-c2cc(N)n3nc(-c4c[nH]c5ccccc45)cc3n2)c2cc(Br)ccc21 in this test?
Result: 1 (yes)

Problem: Which outcome was assigned to CN(C)C(=O)c1cc(-c2ccc3ncnc(N4CCc5cc(F)c(Cl)cc54)c3c2)cnc1N in this test?
Result: 1 (yes)

Problem: Which outcome was assigned to O=C(NNC(=O)c1ccc(OCc2nc3ccc(Cl)cc3[nH]2)cc1)Nc1ccc(Cl)c(Cl)c1 in this test?
Result: 0 (no)

Problem: Which outcome was assigned to N#Cc1c(-c2ccc(F)cc2)nc(SCc2ccccc2)nc1N1CCNCC1 in this test?
Result: 1 (yes)

Problem: Which outcome was assigned to Cc1nn(-c2ccccc2)c2nc(C)n(CC(=O)N/N=C/c3ccccc3O)c(=O)c12 in this test?
Result: 0 (no)

Problem: Which outcome was assigned to COc1ccc(C2=Nc3c(N)nc(N)nc3NC(c3ccc(Oc4nc(Nc5ccc(F)cc5)nc(N(C)C)n4)c(OC)c3)C2)cc1 (stereo not drawn) in this test?
Result: 0 (no)

Problem: Which outcome was assigned to Cn1cc(-c2cc(N)n3nc(-c4c[nH]c5ccccc45)cc3n2)c2cc(F)ccc21 in this test?
Result: 0 (no)

Problem: Which outcome was assigned to CC[C@]12C=CCN3CC[C@]4(C(=C(C(=O)OC)C1)Nc1cc(OC)c([C@@H]5[C@H]6O[C@H]6[C@@]6(CC)CC(C(=O)OC)=C7Nc8cc(OC)ccc8[C@@]78CCN5[C@@H]68)cc14)[C@@H]32 in this test?
Result: 0 (no)

Problem: Which outcome was assigned to COc1ccc(/C=C/C(=O)c2ccc(S(=O)(=O)NCCNc3nc(N(C)C)nc(N4CCOCC4)n3)cc2)cc1 in this test?
Result: 0 (no)

Problem: Which outcome was assigned to CC(Nc1ncnc2ccc(-c3ccc4oc(N)nc4c3)cc12)c1ccccc1 (stereo not drawn) in this test?
Result: 0 (no)

Problem: Which outcome was assigned to COc1ccc(-c2cc(-c3cc(OC)c(OC)c(OC)c3)[nH]c(=O)c2C#N)cc1 in this test?
Result: 0 (no)

Problem: Which outcome was assigned to O=C(CSc1nnc(-c2ccc(-c3nc4ccc(Cl)cc4[nH]3)cc2)o1)Nc1ccccc1 in this test?
Result: 0 (no)

Problem: Which outcome was assigned to Nc1cc(-c2c[nH]c3ccc(Br)cc23)nc2cc(-c3c[nH]c4ccccc34)nn12 in this test?
Result: 1 (yes)

Source listed as PubChem BioAssay (NCI).
